Here the recorded Activity is given for each entry.
Biological target: Ectonucleoside triphosphate diphosphohydrolase 3 (Homo sapiens) (UniProt O75355)
Sequence (whole entry): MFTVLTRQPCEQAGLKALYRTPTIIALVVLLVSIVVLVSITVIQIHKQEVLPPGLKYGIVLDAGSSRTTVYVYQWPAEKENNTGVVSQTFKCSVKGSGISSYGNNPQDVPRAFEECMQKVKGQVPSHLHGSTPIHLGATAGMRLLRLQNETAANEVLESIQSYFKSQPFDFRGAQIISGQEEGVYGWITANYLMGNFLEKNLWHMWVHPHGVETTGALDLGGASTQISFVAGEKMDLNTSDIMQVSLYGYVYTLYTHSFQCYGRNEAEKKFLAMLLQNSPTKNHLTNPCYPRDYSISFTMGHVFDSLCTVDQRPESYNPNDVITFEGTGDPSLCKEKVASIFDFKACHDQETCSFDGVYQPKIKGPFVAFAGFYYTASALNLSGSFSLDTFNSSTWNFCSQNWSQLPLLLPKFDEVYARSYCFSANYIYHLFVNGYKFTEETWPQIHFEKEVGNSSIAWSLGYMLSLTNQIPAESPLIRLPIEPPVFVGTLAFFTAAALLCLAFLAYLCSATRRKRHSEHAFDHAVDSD
Assay: Activity of human NTPDase 3 expressed in human 293T cells assessed as drug hydrolysis at 100 uM after 20 mins relative to ATP
Type: cell-based
Parameters: scale not given: the % may be the effect or the level left
Property measured: Activity (%)

INSERT INTO results (compound, target_or_test_system, property_measured, measurement) VALUES
  ('CSc1nc(N)c2ncn([C@@H]3O[C@H](COP(=O)(O)OP(=O)(O)CP(=O)(O)O)[C@@H](O)[C@H]3O)c2n1', 'Ectonucleoside triphosphate diphosphohydrolase 3 (Homo sapiens) (UniProt O75355)', 'Activity', 7),
  ('BP(=O)(OC[C@H]1O[C@@H](n2cnc3c(N)nc(SC)nc32)[C@H](O)[C@@H]1O)OP(=O)(O)CP(=O)(O)O (single isomer, unassigned; diastereomer A)', 'Ectonucleoside triphosphate diphosphohydrolase 3 (Homo sapiens) (UniProt O75355)', 'Activity', 2),
  ('BP(=O)(OC[C@H]1O[C@@H](n2cnc3c(N)ncnc32)[C@H](O)[C@@H]1O)OP(=O)(O)CP(=O)(O)O (single isomer, unassigned; diastereomer B)', 'Ectonucleoside triphosphate diphosphohydrolase 3 (Homo sapiens) (UniProt O75355)', 'Activity', 6),
  ('BP(=O)(OC[C@H]1O[C@@H](n2cnc3c(N)nc(SC)nc32)[C@H](O)[C@@H]1O)OP(=O)(O)CP(=O)(O)O (single isomer, unassigned; diastereomer B)', 'Ectonucleoside triphosphate diphosphohydrolase 3 (Homo sapiens) (UniProt O75355)', 'Activity', 2),
  ('BP(=O)(OC[C@H]1O[C@@H](n2cnc3c(N)ncnc32)[C@H](O)[C@@H]1O)OP(=O)(O)CP(=O)(O)O (stereo not given in full)', 'Ectonucleoside triphosphate diphosphohydrolase 3 (Homo sapiens) (UniProt O75355)', 'Activity', 0);

---

Target: Ectonucleotide pyrophosphatase/phosphodiesterase family member 1 (Homo sapiens)
Assay: Activity of human NPP1 expressed in human 293T cells assessed as drug hydrolysis at 100 uM after 20 mins by reverse-phase HPLC relative to p-nitrophenyl-thymidine-5-monophosphate
Assay type: cell-based
Parameters: scale not given: the % may be the effect or the level left
Here the recorded Activity is given for each entry.
Property measured: Activity (%)

INSERT INTO measurements (molecule, target_or_test_system, property_measured, result_units, prefix_operator, measurement) VALUES
  ('BP(=O)(OC[C@H]1O[C@@H](n2cnc3c(N)ncnc32)[C@H](O)[C@@H]1O)OP(=O)(O)CP(=O)(O)O (stereo not given in full)', 'Ectonucleotide pyrophosphatase/phosphodiesterase family member 1 (Homo sapiens)', 'Activity', '%', '=', 0),
  ('BP(=O)(OC[C@H]1O[C@@H](n2cnc3c(N)nc(SC)nc32)[C@H](O)[C@@H]1O)OP(=O)(O)CP(=O)(O)O (single isomer, unassigned; diastereomer B)', 'Ectonucleotide pyrophosphatase/phosphodiesterase family member 1 (Homo sapiens)', 'Activity', '%', '<', 1),
  ('CSc1nc(N)c2ncn([C@@H]3O[C@H](COP(=O)(O)OP(=O)(O)CP(=O)(O)O)[C@@H](O)[C@H]3O)c2n1', 'Ectonucleotide pyrophosphatase/phosphodiesterase family member 1 (Homo sapiens)', 'Activity', '%', '=', 23),
  ('BP(=O)(OC[C@H]1O[C@@H](n2cnc3c(N)ncnc32)[C@H](O)[C@@H]1O)OP(=O)(O)CP(=O)(O)O (single isomer, unassigned; diastereomer B)', 'Ectonucleotide pyrophosphatase/phosphodiesterase family member 1 (Homo sapiens)', 'Activity', '%', '=', 4),
  ('BP(=O)(OC[C@H]1O[C@@H](n2cnc3c(N)nc(SC)nc32)[C@H](O)[C@@H]1O)OP(=O)(O)CP(=O)(O)O (single isomer, unassigned; diastereomer A)', 'Ectonucleotide pyrophosphatase/phosphodiesterase family member 1 (Homo sapiens)', 'Activity', '%', '=', 0);
